// provenance: ChEMBL document CHEMBL1147828

- measurementTarget: Androgen receptor (Rattus norvegicus)
- Sequence (P15207 whole entry S389L): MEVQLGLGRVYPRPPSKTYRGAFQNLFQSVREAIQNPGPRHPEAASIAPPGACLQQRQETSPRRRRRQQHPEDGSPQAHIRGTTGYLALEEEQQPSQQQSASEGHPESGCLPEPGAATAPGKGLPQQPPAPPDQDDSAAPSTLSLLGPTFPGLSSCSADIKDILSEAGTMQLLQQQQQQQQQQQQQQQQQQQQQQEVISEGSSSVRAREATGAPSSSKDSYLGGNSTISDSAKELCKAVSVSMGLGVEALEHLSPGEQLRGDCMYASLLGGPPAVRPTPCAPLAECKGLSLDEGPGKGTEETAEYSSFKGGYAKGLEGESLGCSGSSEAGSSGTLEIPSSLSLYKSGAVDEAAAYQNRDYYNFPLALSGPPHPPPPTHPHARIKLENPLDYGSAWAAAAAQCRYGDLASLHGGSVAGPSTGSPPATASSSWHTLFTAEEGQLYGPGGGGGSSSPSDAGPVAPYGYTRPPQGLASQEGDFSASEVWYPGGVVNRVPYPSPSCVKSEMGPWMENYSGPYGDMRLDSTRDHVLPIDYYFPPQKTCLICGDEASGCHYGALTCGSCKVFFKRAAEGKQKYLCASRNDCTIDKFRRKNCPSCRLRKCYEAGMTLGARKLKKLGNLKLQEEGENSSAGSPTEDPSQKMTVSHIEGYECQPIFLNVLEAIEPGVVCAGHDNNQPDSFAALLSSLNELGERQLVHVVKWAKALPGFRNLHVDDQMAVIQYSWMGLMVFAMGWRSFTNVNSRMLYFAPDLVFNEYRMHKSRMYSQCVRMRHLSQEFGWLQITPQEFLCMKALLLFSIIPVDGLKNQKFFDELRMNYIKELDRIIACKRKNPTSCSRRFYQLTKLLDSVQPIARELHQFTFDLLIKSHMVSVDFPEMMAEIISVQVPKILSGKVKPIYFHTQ
experimentalEndpoint: pIC50
Give bare numbers, as −log10 of the molar value.

Reference set, count: 2
{"smilesRecord": "Oc1ccc2[nH]c3c(c2c1)CSc1ccccc1-3", "measurementTarget": "Androgen receptor (Rattus norvegicus)", "pIC50": 5.35}
{"smilesRecord": "Cn1c2c(c3cc(O)ccc31)CCc1ncccc1-2", "measurementTarget": "Androgen receptor (Rattus norvegicus)", "pIC50": 7.54}

Note: attention shifts to another entry.
In: // fetch Androgen receptor (Rattus norvegicus) pIC50 for Cn1c2c(c3cc(O)ccc31)CSc1ncccc1-2
Out: 7.28
